# assay system: T1, Cyno HER3: CD33-[Cyno HER3, residues 20-643]-TAG (cynomolgus, UniProt G7PIG5 20-643)
# T1 construct: also called cy HER3-Tag; not shown: C-terminal TAG (e.g., FLAG TAG)
# T1 sequence (G7PIG5 entry or part of it): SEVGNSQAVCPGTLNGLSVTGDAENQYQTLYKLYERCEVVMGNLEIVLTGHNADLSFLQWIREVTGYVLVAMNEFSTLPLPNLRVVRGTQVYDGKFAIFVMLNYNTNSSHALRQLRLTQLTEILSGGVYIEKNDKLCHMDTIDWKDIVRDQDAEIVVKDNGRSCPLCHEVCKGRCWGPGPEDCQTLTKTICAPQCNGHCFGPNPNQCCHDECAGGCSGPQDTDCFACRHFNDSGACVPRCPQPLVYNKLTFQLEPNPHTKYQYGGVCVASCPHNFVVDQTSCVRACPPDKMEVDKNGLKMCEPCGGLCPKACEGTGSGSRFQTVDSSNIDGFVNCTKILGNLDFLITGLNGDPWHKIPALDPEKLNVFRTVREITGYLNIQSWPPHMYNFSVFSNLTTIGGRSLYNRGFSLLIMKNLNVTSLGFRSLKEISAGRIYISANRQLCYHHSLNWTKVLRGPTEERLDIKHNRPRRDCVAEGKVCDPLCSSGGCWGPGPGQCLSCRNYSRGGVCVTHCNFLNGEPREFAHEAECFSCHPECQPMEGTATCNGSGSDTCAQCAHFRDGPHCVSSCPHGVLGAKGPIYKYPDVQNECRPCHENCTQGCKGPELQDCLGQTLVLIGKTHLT
# assay comment: SET, IgG vs soluble HER3-Tag
Each item that follows carries a reported Kd.
Please reply with the bare figure in pM and do not write the unit itself.

MOR12510 (antibody, human IgG1, kappa, V domains shown, tested as IgG) VH: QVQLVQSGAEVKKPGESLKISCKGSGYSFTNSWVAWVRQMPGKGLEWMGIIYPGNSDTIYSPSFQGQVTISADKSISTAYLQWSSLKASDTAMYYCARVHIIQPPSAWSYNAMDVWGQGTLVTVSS VL: DIQMTQSPSSLSASVGDRVTITCRASQSISTYLNWYQQKPGKAPKLLIFGASNLQSGVPSRFSGSGSGTDFTLTISSLQPEDFATYYCQQDIDEPWTFGQGTKVEIKR	400
MOR12925 (antibody, human IgG1, kappa, V domains shown, tested as IgG) VH: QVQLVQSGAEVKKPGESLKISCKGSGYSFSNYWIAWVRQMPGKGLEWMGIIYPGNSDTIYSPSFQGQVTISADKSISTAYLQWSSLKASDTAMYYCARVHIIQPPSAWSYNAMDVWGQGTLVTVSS VL: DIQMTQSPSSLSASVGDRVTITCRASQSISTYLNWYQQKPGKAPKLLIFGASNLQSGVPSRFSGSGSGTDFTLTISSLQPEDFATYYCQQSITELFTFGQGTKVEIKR	74

Now turn to the next binder.
Form field: reported Kd of MOR14535 (antibody, human IgG1, kappa, V domains shown, tested as IgG) VH: EVQLVQSGAEVKKPGESLKISCKGSGYSFTTTWVAWVRQMPGKGLEWMGIIYPGLSDTIYSPSFQGQVTISADKSISTAYLQWSSLKASDTAMYYCARVHIIQPPSAWSYNAMDVWGQGTLVTVSS VL: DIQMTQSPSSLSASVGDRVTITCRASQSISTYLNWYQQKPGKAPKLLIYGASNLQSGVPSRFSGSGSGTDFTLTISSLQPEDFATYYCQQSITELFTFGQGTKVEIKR
215

Source: patent US20130273029A1
